Source listed as the array DNA melting data of Ke et al..

This section presents substances with their documented Tm values.
# PROTOCOL_DESCRIPTION: melting temperature; melt of duplexes
# TEST_SETTINGS: sodium 0.0675 M; strand 1 µM
Answer shape: numeric part, then the unit.

Solved cases below.
CGACGTGCCTTATGTGCTG+CAGCACATTAAGCACGTCG ((((((((.(.((((((((+)))))))).).))))))))	49.8 °C
CGACGTGCTAGATGTGCTG+CAGCACATTACGCACGTCG ((((((((...((((((((+))))))))...))))))))	50.1 °C
CGACGTGCCAAATGTGCTG+CAGCACATGAGGCACGTCG (((((((((..((((((((+))))))))..)))))))))	57.3 °C
CGACGTGCATGATGTGCTG+CAGCACATTTAGCACGTCG ((((((((...((((((((+))))))))...))))))))	49.8 °C

Task: Which measured Tm value corresponds to CGACGTGCTGAATGTGCTG+CAGCACATAAAGCACGTCG (((((((((..((((((((+))))))))..))))))))) ?
Output: 55.5 °C

Task: Also check CGACGTGCTTTATGTGCTG+CAGCACATCTCGCACGTCG ((((((((...((((((((+))))))))...))))))))
Output: 46.5 °C

Task: Also check CGACGTGCTGAATGTGCTG+CAGCACATACAGCACGTCG ((((((((((.((((((((+)))))))).))))))))))
Output: 58.6 °C
